meta.source: ChEMBL document CHEMBL1122536

- assay-summary: Compound was evaluated for the dose that causes […] in Sprague-Dawley male rats
- Assay type: ADME, organism-based
- experimental-setup: rat, in vivo
observation-type: LD50

> print(dat)
                            line.notation  observation.type   assay.value
1                    CN(C)c1nc(N)nc(Cl)n1              LD50  < 2000 mg/kg
2         Cc1cccc(N(C)c2cc(Cl)nc(S)n2)c1C              LD50    1780 mg/kg
3        Cc1cccc(Oc2cc(Cl)nc(N(C)C)n2)c1C              LD50  < 2000 mg/kg
4                    CN(C)c1nc(N)cc(Cl)n1              LD50  < 2500 mg/kg
5        Cc1cccc(Nc2nc(Cl)nc(N(C)C)n2)c1C              LD50  < 2000 mg/kg
6  Cc1cccc(Nc2nc(Cl)nc(N(C)CC(=O)O)n2)c1C              LD50    1220 mg/kg
7     Cc1cccc(N(C)c2cc(Cl)nc(N(C)C)n2)c1C              LD50  < 2500 mg/kg
8     Cc1cccc(Nc2nc(Cl)nc(OCC(=O)O)n2)c1C              LD50    1180 mg/kg

###

- Test system: Rattus norvegicus
- assay-summary: Hypolipidemic activity was assessed by measuring liver weight in Sprague-Dawley male rats at 50 mg/kg
- Assay type: functional
- experimental-setup: dose 20 mg/kg; in the assay text read “F 344 rats at 20 mg/kg” for “Sprague-Dawley male rats at 50 mg/kg”
As shown below, each of these compounds has a reported Liver weight value.
observation-type: Liver weight

> print(dat)
                             line.notation  observation.type                    assay.value
1      Cc1cccc(Nc2cc(Cl)nc(NCC(=O)O)n2)c1C      Liver weight  4.2 g (100g of body weight)-1
2      Cc1cccc(Nc2cc(Cl)nc(OCC(=O)O)n2)c1C      Liver weight  4.5 g (100g of body weight)-1
3         Cc1cccc(Nc2cc(Cl)nc(N(C)C)n2)c1C      Liver weight  3.9 g (100g of body weight)-1
4     CCOc1nc(Nc2cccc(C)c2C)nc(SCC(=O)O)n1      Liver weight  3.1 g (100g of body weight)-1
5  CCOc1cc(Nc2cccc(C)c2C)nc(SCC(=O)NCCO)n1      Liver weight  5.9 g (100g of body weight)-1

###

As shown below, each of these compounds has a reported LD50 value.
- assay-summary: Evaluated for the dose that causes 50 % lethality in Sprague-Dawley male rats
- Type: ADME, organism-based
- experimental-setup: rat, in vivo
observation-type: LD50 (mg/kg)

> print(dat)
                              line.notation  relation.sign  assay.value
 1              CN(C)c1cc(Cl)nc(SCC(=O)O)n1              <         2500
 2                 CN(C)c1cc(Cl)nc(N(C)C)n1              <         2500
 3  CCOc1cc(Nc2cccc(C)c2C)nc(SCC(=O)NCCO)n1              =         2500
 4      Cc1cccc(Nc2cc(Cl)nc(SCC(=O)O)n2)c1C              =         1050
 5   Cc1cccc(N(C)c2cc(Cl)nc(SCC(=O)O)n2)c1C              =         1010
 6      Cc1cccc(Oc2cc(Cl)nc(SCC(=O)O)n2)c1C              =         1290
 7   Cc1cccc(N(C)c2cc(Cl)nc(NCC(=O)O)n2)c1C              =          995
 8      Cc1cccc(Nc2cc(Cl)nc(NCC(=O)O)n2)c1C              =         1020
 9   Cc1cccc(N(C)c2cc(Cl)nc(OCC(=O)O)n2)c1C              =         1070
10             Cc1cccc(Nc2cc(Cl)nc(S)n2)c1C              =         1840
11      Cc1cccc(Oc2cc(Cl)nc(OCC(=O)O)n2)c1C              =         1210
12         Cc1cccc(Nc2cc(Cl)nc(N(C)C)n2)c1C              <         2500
13            CSc1nc(Cl)cc(Nc2cccc(C)c2C)n1              =         1250
14      Cc1cccc(Nc2cc(Cl)nc(OCC(=O)O)n2)c1C              =         1080

###

- Test system: Rattus norvegicus
- assay-summary: Hypolipidemic activity was assessed by measuring cholesterol in Sprague-Dawley male rats at 200 mg/kg
- Assay type: functional
observation-type: Cholesterol (mg 100ml-1)

> print(dat)
                            line.notation  observation.type  unit.abbrev  assay.value
1        Cc1cccc(Nc2nc(Cl)nc(N(C)C)n2)c1C       Cholesterol   mg 100ml-1         80.8
2     Cc1cccc(Nc2nc(Cl)nc(OCC(=O)O)n2)c1C       Cholesterol   mg 100ml-1           72
3  Cc1cccc(Nc2nc(Cl)nc(N(C)CC(=O)O)n2)c1C       Cholesterol   mg 100ml-1         76.8

###

- System: Rattus norvegicus
- assay-summary: Hypolipidemic activity was assessed by measuring cholesterol in Sprague-Dawley male rats at 200 mg/kg
- Format: functional
As shown below, each of these compounds has a reported Cholesterol value.
observation-type: Cholesterol (mg 100ml-1)

> print(dat)
                          line.notation  observation.type  unit.abbrev  relation.sign  assay.value
1   Cc1cccc(N(C)c2cc(Cl)nc(N(C)C)n2)c1C       Cholesterol   mg 100ml-1              =         63.2
2  CCOc1nc(Nc2cccc(C)c2C)nc(SCC(=O)O)n1       Cholesterol   mg 100ml-1              =         70.3
3          Cc1cccc(Nc2cc(Cl)nc(S)n2)c1C       Cholesterol   mg 100ml-1              =         76.3
4      Cc1cccc(Oc2cc(Cl)nc(N(C)C)n2)c1C       Cholesterol   mg 100ml-1              =         76.7
5                  CN(C)c1nc(N)cc(Cl)n1       Cholesterol   mg 100ml-1              =         71.4
6                  CN(C)c1nc(N)nc(Cl)n1       Cholesterol   mg 100ml-1              <        105.6
7       Cc1cccc(N(C)c2cc(Cl)nc(S)n2)c1C       Cholesterol   mg 100ml-1              =         65.8
